ASSAY PROTOCOL: Rat in vivo CNS penetration: plasma, brain and CSF concentrations by LC-MS/MS
PARTICULARS: male, Sprague Dawley, CSF, po, 10 mg/kg, 10 mg/kg p.o., 2 h post-dose, read-out: CSF:Plu
READOUT TYPE: Kp at 2 h

Some entries whose results are on file:
COc1cnc(C(=O)Nc2cc(F)c(F)c([C@]34CO[C@H](CF)[C@H]3CSC(N)=N4)c2)cn1 ... 0.6
COc1cnc(C(=O)Nc2ccc(F)c([C@]34CO[C@H](C(F)F)[C@H]3CSC(N)=N4)c2)cn1 ... 0.6

Query :: Entry under review: `COc1cnc(C(=O)Nc2ccc(F)c([C@]34CO[C@H](CF)[C@H]3CSC(N)=N4)c2)cn1` . Reported Kp at 2 h?
Result :: 0.6
